settings: Day 4; G10-G16 groups; single IP 400 mg/kg; Mean±SEM
attribute_measured: Weight of mice, Day 4

CCCCOC(=O)Nc1nc(=O)n(C2OC(COC(=O)COc3nc(Cl)c(Cl)cc3Cl)C(O)C2(F)F)cc1I (stereo not drawn) | 20.07 ± 0.18 g

Please look at the items below and tell me Weight of mice, Day 4 for each one, in order.
1. O=C(COc1nc(Cl)c(Cl)cc1Cl)OC[C@H]1O[C@@H](n2cc(Br)c(NC(=O)OCc3ccccc3)nc2=O)C(F)(F)C1O (stereo partly drawn)
2. CCCCOC(=O)Nc1nc(=O)n(C2OC(COC(=O)COc3nc(Cl)c(Cl)cc3Cl)C(O)C2(F)F)cc1-c1cn(Cc2ccccc2)nn1 (stereo not drawn)
3. O=C(COc1nc(Cl)c(Cl)cc1Cl)OCC1OC(n2cc(-c3cn(Cc4ccccc4)nn3)c(NC(=O)OCc3ccc([N+](=O)[O-])cc3)nc2=O)C(F)(F)C1O (stereo not drawn)
4. CCCCOC(=O)Nc1nc(=O)n(C2OC(COC(=O)COc3nc(Cl)c(Cl)cc3Cl)C(O)C2(F)F)cc1Br (stereo not drawn)
5. CCCCOC(=O)Nc1nc(=O)n([C@@H]2O[C@H](COC(=O)Cn3cnc([N+](=O)[O-])c3)C(O)C2(F)F)cc1I (stereo partly drawn)

stdout:
1. 20.28 ± 0.19 g
2. 16.48 ± 0.77 g
3. 19.77 ± 0.40 g
4. 20.62 ± 0.28 g
5. 19.73 ± 0.25 g

###

conditions: Day 0; G10-G16 groups; single IP 400 mg/kg; Mean±SEM
Provide the recorded Weight of mice, Day 0 for the entries that follow.
Give bare numbers, in g.

Look over these answered cases.
CCCCOC(=O)Nc1nc(=O)n(C2OC(COC(=O)COc3nc(Cl)c(Cl)cc3Cl)C(O)C2(F)F)cc1-c1cn(Cc2ccccc2)nn1 (stereo not drawn) | 20.15
CCCCOC(=O)Nc1nc(=O)n([C@@H]2O[C@H](COC(=O)Cn3cnc([N+](=O)[O-])c3)C(O)C2(F)F)cc1I (stereo partly drawn) | 20.05

Moving on to another molecule below.
stdin: For the molecule CCCCOC(=O)Nc1nc(=O)n(C2OC(COC(=O)COc3nc(Cl)c(Cl)cc3Cl)C(O)C2(F)F)cc1Br (stereo not drawn) , what Weight of mice, Day 0 is on record?
stdout: 20.60

###

Provide the recorded Weight change rate, Day 1 for the entries that follow.
conditions: Day 1; G10-G16 groups; single IP 400 mg/kg; Mean±SEM
Answers are plain numbers, in %.

CCCCOC(=O)Nc1nc(=O)n(C2OC(COC(=O)COc3nc(Cl)c(Cl)cc3Cl)C(O)C2(F)F)cc1I (stereo not drawn) [Compound G11] | −5.41
CCCCOC(=O)Nc1nc(=O)n(C2OC(COC(=O)COc3nc(Cl)c(Cl)cc3Cl)C(O)C2(F)F)cc1Br (stereo not drawn) [Compound G16] | −0.99

Moving on to another molecule below.
stdin: For the molecule O=C(COc1nc(Cl)c(Cl)cc1Cl)OCC1OC(n2cc(-c3cn(Cc4ccccc4)nn3)c(NC(=O)OCc3ccc([N+](=O)[O-])cc3)nc2=O)C(F)(F)C1O (stereo not drawn) [Compound G13] , what Weight change rate, Day 1 is on record?
stdout: −6.73
